- Tested on: K-562 cells
So basically, if GI50 comes in under 1 µM it's 1, and if it's 1 µM or more it's -1.

Here's what some known entries look like.
Cc1cc(N2C(=O)c3n[nH]cc3C2c2ccc(Cl)cc2)cn(C)c1=O (centres unmarked) [Example 26]: -1
CCc1nn(CCOC)c2c1C(c1ccc(Cl)cc1)N(c1cc(C)c3nnc(C)n3c1)C2=O (centres unmarked) [Example 87]: 1
Cc1cc(N2C(=O)c3nn(C)cc3[C@H]2c2ccc(Cl)cc2)cn(C)c1=O [Example 16]: 1
CCc1nn(-c2ccnn2C)c2c1C(c1ccc(Cl)cc1)N(c1cc(C)c(=O)n(C)c1)C2=O (centres unmarked) [Example 89]: 1
Cc1nn(C(C)C)c2c1C(c1ccc(Cl)cc1)N(c1cc(C)c(=O)n(C)c1)C2=O (centres unmarked) [Example 63]: 1
CCc1c2c(nn1C(=O)N(C)C)C(=O)N(c1cc(C)c(=O)n(C)c1)C2c1ccc(Cl)cc1 (centres unmarked) [Example 148]: -1

-- ask Hello, I'm reviewing records and need to know if GI50 of Cc1nn(C2CC2)c2c1C(c1cccc(C(F)(F)F)c1)N(c1cc(C)c(=O)n(C)c1)C2=O (centres unmarked) [Example 96] is below 1 µM. Could you check?
-- reply -1

-- ask Note, next up: Cc1nn(C(C)C)c2c1C(c1ccc(Cl)cc1F)N(c1cc(C)c(=O)n(C)c1)C2=O (centres unmarked) [Example 180]
-- reply 1

----------
THP-1 cells data, read-out GI50
Lab book: enter the figure in nM, no units written.

COc1ccccc1-n1nc(C)c2c1C(=O)N(c1cc(C)c3nnc(C)n3c1)C2c1ccc(Cl)cc1F (stereo not drawn) [Example 187]: 168

-- ask Given the entry Cc1nn(C)c2c1C(c1ccc(Cl)cc1)N(c1cc(Cl)c(=O)n(C)c1)C2=O (stereo not drawn) [Example 58] , report its measured GI50.
-- reply 189

-- ask Check Cc1nn(C(=O)N(C)C)c2c1[C@@H](c1ccc(Cl)cc1)N(c1cc(C)c3nnc(C)n3c1)C2=O [Example 149] too.
-- reply 68.8

-- ask # iterate: Cc1nn(-c2cncn2C)c2c1C(c1ccc(Cl)cc1)N(c1cc(C)c(=O)n(C)c1)C2=O (stereo not drawn) [Example 83]
-- reply 164

-- ask Cool, now Cc1cc(N2C(=O)c3c(c(CO)nn3C3CC3)C2c2ccc(Cl)cc2)cn(C)c1=O (stereo not drawn) [Example 133]
-- reply 166

-- ask Now consider Cc1cc(N2C(=O)c3nn(C)cc3[C@H]2c2ccc(Cl)cc2)cn(C)c1=O [Example 16] .
-- reply 101

-- ask Next: COc1ncccc1-n1nc2c(c1C)C(c1ccc(F)cc1F)N(c1cc(C)c3nnc(C)n3c1)C2=O (stereo not drawn) [Example 193]
-- reply 66.2

-- ask Here is the next compound: Cc1cc(N2C(=O)c3nn(C4CC4)c(C)c3[C@H]2c2ccc(Cl)cc2)cn(C)c1=O [Example 21]
-- reply 36.6

----------
// GI50 collected for K-562 cells

// below: answered molecules
Cc1nn(-c2ccnn2C)c2c1[C@@H](c1ccc(Cl)cc1)N(c1cc(C)c(=O)n(C)c1)C2=O [Example 120]: 402 nM
Cc1nn(C(=O)N(C)C)c2c1C(c1ccc(Cl)cc1)N(c1cc(C)c(=O)n(C)c1)C2=O (stereo not drawn) [Example 142]: 712 nM

// switching to the query molecule
-- ask Name the reported GI50 value associated with the molecule COc1ncc(-n2nc3c(c2C(F)(F)F)C(c2ccc(Cl)cc2)N(c2cc(Cl)c(=O)n(C)c2)C3=O)c(OC)n1 (stereo not drawn) [Example 47]
-- reply 709 nM

----------
- Tested on: K-562 cells
GI50 values, listed per item
Report as a plain number; the unit µM is understood.

Example molecules with recorded GI50:
COc1ccccc1-n1nc(C)c2c1C(=O)N(c1cc(C)c3nnc(C)n3c1)C2c1ccc(F)cc1F (stereo not shown): 0.331
COc1ncc(-n2nc3c(c2C)C(c2ccc(Cl)cc2)N(c2cc(C)c(=O)n(C)c2)C3=O)c(OC)n1 (stereo not shown): 0.265
COc1ncccc1-n1nc(C)c2c1C(=O)N(c1cc(C)c3nnc(C)n3c1)C2c1ccc(Cl)cc1F (stereo not shown): 0.394
COc1ncccc1-n1nc(C)c2c1C(=O)N(c1cc(C)c(=O)n(C)c1)C2c1ccc(Cl)cc1 (stereo not shown): 0.345

Now for another entry.
-- ask So what does the record say about GI50 for Cc1nn(C[C@H](O)C(F)(F)F)c2c1[C@@H](c1ccc(Cl)cc1)N(c1cc(C)c3nnc(C)n3c1)C2=O ?
-- reply 0.294

----------
- Test system: MV-4-11 cells
experimental-readout: log10 GI50 (log10 of the value in nM)
Scale: log10; quantity: GI50; unit before log: nM

Consider the following illustrative entries.
COc1ncccc1-n1nc2c(c1C)C(c1ccc(F)cc1F)N(c1cc(C)c3nnc(C)n3c1)C2=O (stereo not shown) [Example 193]: 1.76
COc1ncc(-n2nc(C)c3c2C(=O)N(c2cc(C)c(=O)n(C)c2)[C@H]3c2ccc(Cl)cc2)c(OC)n1 [Example 99]: 3.30
Cc1c2c(nn1C1CC1)C(=O)N(c1cc(Cl)c(=O)n(C)c1)[C@H]2c1ccc(Cl)cc1 [Example 18]: 3.52
Cc1nn(C2CC2)c2c1C(c1ccc(Cl)cc1)N(c1cc(C)c3nnc(C)n3c1)C2=O (stereo not shown) [Example 92]: 1.04
CCn1nc2c(c1C)C(c1ccc(F)cc1F)N(c1cc(C)c3nnc(C)n3c1)C2=O (stereo not shown) [Example 182]: 1.80
Cc1nn(C2CC2)c2c1C(c1cccc(C(F)(F)F)c1)N(c1cc(C)c(=O)n(C)c1)C2=O (stereo not shown) [Example 96]: 2.95

-- ask If you can, please state the reported log10 GI50 value of COc1ncc(-n2nc3c(c2C)C(c2ccc(Cl)cc2)N(c2cc(C)c(=O)n(C)c2)C3=O)c(OC)n1 (stereo not shown) [Example 56] .
-- reply 1.76

-- ask Lookup Cc1ncccc1-n1nc2c(c1C)C(c1ccc(Cl)cc1)N(c1cc(C)c(=O)n(C)c1)C2=O (stereo not shown) [Example 81]
-- reply 1.98

-- ask COc1ncccc1-n1nc(C)c2c1C(=O)N(c1cc(C)c3nnc(C)n3c1)C2c1ccc(Cl)cc1F (stereo not shown) [Example 184] , same question.
-- reply 1.78

-- ask And for CCc1nn(-c2ccnn2C)c2c1C(c1ccc(Cl)cc1)N(c1cc(C)c(=O)n(C)c1)C2=O (stereo not shown) [Example 89] ?
-- reply 1.67

-- ask Queued: Cc1nn(C2COC2)c2c1C(c1ccc(Cl)cc1)N(c1cc(C)c(=O)n(C)c1)C2=O (stereo not shown) [Example 135]
-- reply 1.90

-- ask Try this molecule too: Cc1nn(C)c2c1C(c1ccc(Cl)cc1)N(c1cc(C)c(=O)n(C)c1)C2=O (stereo not shown) [Example 57]
-- reply 1.84

-- ask Then Cc1nn(C2CC2)c2c1C(c1cccc(OC(F)(F)F)c1)N(c1cc(C)c(=O)n(C)c1)C2=O (stereo not shown) [Example 91] ?
-- reply 2.80

-- ask Then Cc1cc(N2C(=O)c3nn(C4COC4)c(C)c3C2c2ccc(Cl)cc2)cn2c(C)nnc12 (stereo not shown) [Example 136] ?
-- reply 1.45

-- ask Quick one: COc1ccccc1-n1nc(C)c2c1C(=O)N(c1cc(C)c3nnc(C)n3c1)C2c1ccc(F)cc1F (stereo not shown) [Example 177]
-- reply 1.83

----------
A set of molecules tested on K-562 cells, with measured GI50:
Dear colleague, please return just the value in nM, with no unit written.

CNC(=O)n1nc(C)c2c1C(=O)N(c1cc(C)c(=O)n(C)c1)C2c1ccc(Cl)cc1 (stereo not drawn) [Example 143]: 1200

-- ask Which GI50 is reported with K-562 cells for this entry: CCc1nn(C2CC2)c2c1C(c1ccc(Cl)cc1)N(c1cc(C)c3nnc(C)n3c1)C2=O (stereo not drawn) [Example 70] ?
-- reply 60.8

-- ask Next molecule: CCc1nn(C)c2c1C(c1ccc(Cl)cc1)N(c1cc(OC)c3nnc(C)n3c1)C2=O (stereo not drawn) [Example 105]
-- reply 729

-- ask Next record, please: Cc1ncccc1-n1nc(C)c2c1C(=O)N(c1cc(C)c(=O)n(C)c1)C2c1ccc(Cl)cc1 (stereo not drawn) [Example 82]
-- reply 920

-- ask Proceed to COc1ncccc1-n1nc2c(c1C)C(c1ccc(Cl)cc1F)N(c1cc(C)c3nnc(C)n3c1)C2=O (stereo not drawn) [Example 194]
-- reply 245

-- ask Another molecule: Cc1nn(C2COC2)c2c1C(c1ccc(Cl)cc1)N(c1cc(C)c(=O)n(C)c1)C2=O (stereo not drawn) [Example 135]
-- reply 616

-- ask Also check COc1ncccc1-n1nc(C)c2c1C(=O)N(c1cc(C)c3nnc(C)n3n1)C2c1ccc(Cl)cc1 (stereo not drawn) [Example 111]
-- reply 177

-- ask Then this molecule: CCc1nn(C2CC2)c2c1C(c1ccc(Cl)cc1)N(c1cc(OC)c3nnc(C)n3c1)C2=O (stereo not drawn) [Example 84]
-- reply 384

-- ask Now consider CCOc1c2c(nn1C)C(=O)N(c1cc(C)c(=O)n(C)c1)C2c1ccc(Cl)cc1 (stereo not drawn) [Example 76] .
-- reply 339

-- ask Input CCOC(=O)N1CC(n2nc(C)c3c2C(=O)N(c2cc(C)c4nnc(C)n4c2)C3c2ccc(Cl)cc2)C1 (stereo not drawn) [Example 156]
-- reply 374

-- ask What do you get for COc1ncccc1-n1nc(C)c2c1C(=O)N(c1cc(C)c3nnc(C)n3c1)C2c1ccc(F)cc1F (stereo not drawn) [Example 173] ?
-- reply 328

-- ask Also need Cc1nn(C2CC2)c2c1C(c1cccc(OC(F)(F)F)c1)N(c1cc(C)c(=O)n(C)c1)C2=O (stereo not drawn) [Example 91] , thanks.
-- reply 2680
